# System: HCV replicon 1B
# Protocol: microbe, parasite or virus in culture
# Assay type: cell-based, Hepatitis C virus (HCV)
# Condition: Hepatitis C virus, HCV replicon 1B; Replicon Assay B
# Description: In an alternate assay (“Replicon Assay B”), 1000 cells were seeded per well in a 384-well collagen coated black plate from Greiner bio-one (Cat #781946) in 5% FBS. Inhibitors of this invention were added at 24 h post-seeding, and the plates were incubated for 3 days. […] HCV replicon RNA level was measured by real-time PCR using the RNA-to-CT kit from Applied Biosystem (Cat #4392656) and genotype-specific primers and probes. […]
I'd be grateful if you could share measured pIC50 for these entries.
Schema: pIC50 number; meaning minus log10 of the concentration expressed in molar units.

Entry COC(=O)NC(C(=O)N1CCC[C@H]1c1ncc(-c2ccc3c(c2)cc2n3C(c3ccc(C4CC4)s3)Oc3cc(-c4cnc([C@@H]5C[C@H]6C[C@H]6N5C(=O)[C@@H](NC(=O)OC)C(C)C)[nH]4)cc(F)c3-2)[nH]1)C1C[C@@H](C)O[C@@H](C)C1 (single isomer, unassigned) , tested on HCV replicon 1B, has a reported pIC50 of 11.49

Bench note, HCV replicon 1B: entry COC(=O)N[C@H](C(=O)N1CCC[C@H]1c1nc(-c2cc(F)c3c(c2)OC(c2ccc(C4CC4)s2)n2c-3cc3cc(-c4c[nH]c([C@@H]5C[C@H]6C[C@H]6N5C(=O)[C@@H](NC(=O)OC)C(C)C)n4)ccc32)c[nH]1)C(C)C (single isomer, unassigned) , its pIC50 = 11.82

# pIC50 measured on HCV replicon 1B for item COC(=O)NC(C(=O)N1CCC[C@H]1c1ncc(-c2ccc3c(c2)cc2n3C(c3ccc(CC(C)(C)OC)s3)Oc3cc(-c4cnc([C@@H]5CCCN5C(=O)[C@@H](NC(=O)OC)C(C)C)[nH]4)cc(F)c3-2)[nH]1)C1CCOC(C)(C)C1 (some centres unmarked) = 11.35

CCc1ccc(C2Oc3cc(-c4cnc([C@@H]5CCCN5C(=O)[C@@H](NC(=O)OC)C(C)C)[nH]4)cc(C)c3-c3cc4cc(-c5cnc([C@@H]6CCCN6C(=O)C(NC(=O)OC)C6C[C@@H](C)O[C@H](C)C6)[nH]5)ccc4n32)s1 (single isomer, unassigned) tested on HCV replicon 1B gave pIC50: 11.22

Tested system HCV replicon 1B; pIC50 recorded for CCc1ccc(C2Oc3cc(-c4cnc([C@@H]5CCCN5C(=O)[C@@H](NC(=O)OC)C(C)C)[nH]4)ccc3-c3c(F)c4cc(-c5cnc([C@@H]6CCCN6C(=O)C(NC(=O)OC)C6C[C@@H](C)O[C@@H](C)C6)[nH]5)ccc4n32)s1 (single isomer, unassigned) was 11.82
